The reported numbers originate from the supplement of paper PMC11451515.

system: NOMO1; test: cell viability relative to DMSO control; higher = less cytotoxic; conditions: RPMI 5 mM glucose + 10% FBS; 48 h; 0.00702 µM
Endpoint Label: cell viability

1) CC(=O)Oc1ccccc1C(=O)Nc1ncc([N+](=O)[O-])s1 :: 93.4%
2) C=CC(=O)Nc1cc2c(Nc3ccc(F)c(Cl)c3)ncnc2cc1OCCCN1CCOCC1 :: 126%
3) Cc1coc2c1C(=O)C(=O)c1c-2ccc2c1CCCC2(C)C :: 96.8%
4) Cc1ccc([S+](=O)([O-])OCC(=O)Nc2ccc(C(=O)O)c(O)c2)cc1 :: 124%
5) CN1CC(=O)N2[C@H](c3ccc4c(c3)OCO4)c3[nH]c4ccccc4c3C[C@@H]2C1=O :: 89.1%
6) CN1\C=N/C2=CC=C(NC3=CC(=CC=C3C)NC(=O)C4=CC(=CC=C4)C(C)(C)C#N)C=C2C1=O :: 111%
7) CC1=CC(=CC(=C1C\C2=N\CCN2)C)C(C)(C)C :: 92.9%
8) O=C(CCCN1CCN(c2ccc(F)cc2)CC1)NC1c2ccccc2CSc2ccccc21 (centres undefined) :: 108%
9) COC(=O)c1ccc2c(c1)NC(=O)/C2=C(\Nc1ccc(N(C)C(=O)CN2CCN(C)CC2)cc1)c1ccccc1 :: 96.5%
